method-notes: qHTS assay for measurement of the activity of small molecule inhibitors on Zika virus induced Caspase-3 activity in human astrocytoma cells (AID 1224859)
measurement-setup: SNB-19 ZIKV-induced caspase-3/7, luminescence, 6 h; series mostly up to 45.7 µM
Description: National Center for Advancing Translational Sciences [NCATS] Johns Hopkins University School of Medicine […] The medium for SNB-19 cells is composed of RPMI 1640 (ATCC, Cat.# 30-2001), 10% fetal bovine serum (FBS) (GE healthcare Life Sciences, Cat.# SH30071.03), and 1% Pen/Strep (Gibco, Cat.# 15140-122). […] The luminescence intensity of the assay plates was measured using a ViewLux plate reader (PerkinElmer). […]
Calls of active or inactive are those of the source. Calls come from the whole dose curve; as a rule, active = well fitted inhibition curve with a large enough effect; inconclusive = small, poorly fitted or top-dose-only effect; inactive = no such curve, though single readings can be large or run the other way.
Give your call using only these classes: active, inactive

Ask | Please indicate how the test categorized CC(Cc1ccc(O)cc1)NCC(O)c1cc(O)cc(O)c1 (stereo not drawn) .
Reply | inactive

Ask | Please indicate how the test categorized Fc1cc(Br)ccc1CBr .
Reply | inactive

Ask | Please indicate how the test categorized O=C(NCC1CCOCC1)c1cnc(Nc2ccc(Cl)cc2Cl)nc1C(F)(F)F .
Reply | active

Ask | Please indicate how the test categorized CCOCCOC(C)=O .
Reply | inactive

Ask | Please indicate how the test categorized Nc1c(Cl)c(Cl)c(Cl)c(Cl)c1Cl .
Reply | inactive

Ask | Please indicate how the test categorized O=S(=O)(O)C(F)(F)C(F)(F)C(F)(F)C(F)(F)C(F)(F)C(F)(F)C(F)(F)C(F)(F)F .
Reply | inactive

Ask | Please indicate how the test categorized CN1C2CCC1CC(OC(=O)c1cc(Cl)cc(Cl)c1)C2 (stereo not drawn) .
Reply | inactive

Ask | Please indicate how the test categorized CC(C)N(CCNC(=O)CN1CCCC1=O)C(C)C .
Reply | inactive

Ask | Please indicate how the test categorized O=[N+]([O-])c1ncc[nH]1 .
Reply | inactive

Ask | Please indicate how the test categorized COc1ccc2c(c1)CN(C)CC2c1ccc(Cl)c(Cl)c1 (stereo not drawn) .
Reply | inactive

Ask | Please indicate how the test categorized COc1cc2cc(c1Cl)N(C)C(=O)C[C@H](OC(=O)C(C)C)[C@]1(C)O[C@H]1[C@H](C)[C@@H]1C[C@@](O)(NC(=O)O1)[C@H](OC)C=CC=C(C)C2 .
Reply | inactive

Ask | Please indicate how the test categorized CC[N+]1(CCOC(=O)C(O)(c2ccccc2)c2ccccc2)CCCCC1 .
Reply | inactive

Ask | Please indicate how the test categorized C[C@@H]1O[C@H](C[N+](C)(C)C)C[C@H]1O .
Reply | inactive

Ask | Please indicate how the test categorized NC(=O)CN1CC(O)CC1=O (stereo not drawn) .
Reply | inactive

Ask | Please indicate how the test categorized C#CCOC(=O)C1=CCCN(C)C1 .
Reply | inactive

Ask | Please indicate how the test categorized C[C@]12N[C@H](Cc3ccccc31)c1ccccc12 .
Reply | inactive

Ask | Please indicate how the test categorized NC1=NC(=O)N2CC12 (stereo not drawn) .
Reply | inactive

Ask | Please indicate how the test categorized c1cc2c(cc1[C@H]1OC[C@H]3[C@H]1CO[C@H]3c1ccc3c(c1)OCO3)OCO2 .
Reply | inactive

Ask | Please indicate how the test categorized NC(=NCCC[C@H](N)C(=O)O)N[N+](=O)[O-] .
Reply | inactive

Ask | Please indicate how the test categorized COc1nn(CSP(=S)(OC)OC)c(=O)s1 .
Reply | inactive

Ask | Please indicate how the test categorized CCCN1CCO[C@@H]2c3cc(O)ccc3OC[C@H]21 .
Reply | inactive

Ask | Please indicate how the test categorized CC(C)[C@H]1C(=O)N[C@H](CO)Cc2c[nH]c3cccc(c23)N1C .
Reply | inactive

Ask | Please indicate how the test categorized OCCCBr .
Reply | inactive

Ask | Please indicate how the test categorized CCOP(=O)(NC(C)C)Oc1ccc(SC)c(C)c1 (stereo not drawn) .
Reply | inactive

Ask | Please indicate how the test categorized S=C(SSC(=S)N1CCCCC1)N1CCCCC1 .
Reply | inactive

Ask | Please indicate how the test categorized c1ccc2sc(C3(N4CCCCC4)CCCCC3)cc2c1 .
Reply | inactive

Ask | Please indicate how the test categorized O=c1[nH]c2ccc(Cl)cc2c(N[C@@H]2CN3CCC2CC3)c1-c1nc2ccccc2[nH]1 .
Reply | inactive

Ask | Please indicate how the test categorized O=S(=O)(CC1CS1)c1ccc(Oc2ccccc2)cc1 (stereo not drawn) .
Reply | inactive

Reference source: PubChem BioAssay (NCATS)
